pIC50 overview
Biological target: Sodium-dependent serotonin transporter (Homo sapiens, UniProt P31645)
Sequence (P31645 whole entry): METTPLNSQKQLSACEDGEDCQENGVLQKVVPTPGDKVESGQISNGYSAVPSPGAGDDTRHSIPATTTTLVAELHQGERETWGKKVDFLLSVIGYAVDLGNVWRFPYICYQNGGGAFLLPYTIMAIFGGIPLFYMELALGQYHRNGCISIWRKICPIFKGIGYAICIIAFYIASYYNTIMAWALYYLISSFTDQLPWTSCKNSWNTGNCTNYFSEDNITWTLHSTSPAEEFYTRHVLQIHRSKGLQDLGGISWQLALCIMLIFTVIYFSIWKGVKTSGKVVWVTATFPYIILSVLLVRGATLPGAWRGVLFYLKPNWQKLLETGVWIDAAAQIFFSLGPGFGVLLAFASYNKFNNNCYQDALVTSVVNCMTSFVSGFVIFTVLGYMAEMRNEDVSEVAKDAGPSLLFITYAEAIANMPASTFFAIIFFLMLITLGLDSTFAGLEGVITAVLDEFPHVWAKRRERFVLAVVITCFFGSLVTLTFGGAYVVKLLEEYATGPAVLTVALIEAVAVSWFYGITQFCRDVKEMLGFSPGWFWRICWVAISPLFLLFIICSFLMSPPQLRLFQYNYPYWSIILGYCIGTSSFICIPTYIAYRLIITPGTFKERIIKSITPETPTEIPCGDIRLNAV
The meaning of pIC50 here: minus log10 of the concentration in molar units.

compound | readout type | reported measurement
CSCCSCCC(=O)OC[C@@H]1C2CCC(C[C@@H]1c1ccc(F)cc1)N2C (some centres not stated) | pIC50 | 7.55

Next:
In: Request: pIC50, test system Sodium-dependent serotonin transporter (Homo sapiens, UniProt P31645), entry COC(=O)[C@H]1[C@@H](c2ccc(F)cc2)C[C@H]2CC[C@H]1N2C
Out: 6.12
